assay: Toxicity liver stage against HepG2, at 10uM; format: cell-based; set-up: test concentration 10 uM, cell line HepG2-A16-CD81EGFP; details: human, HepG2-A16-CD81EGFP cells; read-out: INHIBITION
Endpoint: cytotoxicity at 10 µM
Answer with the number, then the unit.

Lookup: I would be grateful if you could share the reported cytotoxicity at 10 µM for CCOc1ccc(CC(CNC(=O)c2ccc(C)s2)C(N)=O)cc1 (stereo unspecified) .
Found: -3.85%

Lookup: I would be grateful if you could share the reported cytotoxicity at 10 µM for `Cn1cccc1C(=O)NCc1cn2c(n1)CN(CC1CCOCC1)CC2` .
Found: 8.33%

Lookup: I would be grateful if you could share the reported cytotoxicity at 10 µM for CC(=O)N1CCCCC12CCCN(Cc1ccco1)C2 (stereo unspecified) .
Found: 4.59%

Lookup: I would be grateful if you could share the reported cytotoxicity at 10 µM for `O=C(COc1ccc(-c2ccccc2)nc1)NCC1CC1` .
Found: 6.8%

Lookup: I would be grateful if you could share the reported cytotoxicity at 10 µM for O=C(c1cscn1)N1CCC2(CCCN(CCOc3ccccc3)C2)C1 (stereo unspecified) .
Found: 1.38%

Lookup: I would be grateful if you could share the reported cytotoxicity at 10 µM for COC(C)C(=O)NS(=O)(=O)c1ccc(F)c(C(F)(F)F)c1 (stereo unspecified) .
Found: -4.04%

###

assay: Toxicity liver stage against HepG2, at 10uM; type: cell-based; design: test concentration 10 uM, cell line HepG2-A16-CD81EGFP; conditions: human, HepG2-A16-CD81EGFP cells; read-out: INHIBITION
Endpoint: cytotoxicity at 10 µM (%)
Answer format: numeric, % implied, no suffix.

Lookup: I would be grateful if you could share the reported cytotoxicity at 10 µM for CCn1cc(CN2CCCC(CO)(CCc3ccccc3)C2)c(C)n1 (stereo not given) .
Found: -4.63

Lookup: I would be grateful if you could share the reported cytotoxicity at 10 µM for CCN(CC1CCOCC1)C(=O)C1CC(=O)N(Cc2cccnc2)C1 (stereo not given) .
Found: 0.719

Lookup: I would be grateful if you could share the reported cytotoxicity at 10 µM for `O=C(c1ccc(=O)[nH]n1)N1CCC(CN2CCOCC2)CC1` .
Found: 4.13

Lookup: I would be grateful if you could share the reported cytotoxicity at 10 µM for `Cc1cc(CNC(=O)CC2CN(C(=O)OC(C)(C)C)C2)ccc1F` .
Found: 4.21

Lookup: I would be grateful if you could share the reported cytotoxicity at 10 µM for CC(C(=O)NCc1ccc(N2CCCCCC2)nc1)S(C)(=O)=O (stereo not given) .
Found: -11.9

Lookup: I would be grateful if you could share the reported cytotoxicity at 10 µM for CC(=O)Nc1ccc(SCC(=O)NCC2CCCO2)nn1 (stereo not given) .
Found: -16.7

Lookup: I would be grateful if you could share the reported cytotoxicity at 10 µM for Cc1nc(-c2nnc(SCC(=O)O)n2C(C)c2ccccc2)co1 (stereo not given) .
Found: -6.3

Lookup: I would be grateful if you could share the reported cytotoxicity at 10 µM for `Cc1csc(NC(=O)CN2CCC(c3ccnn3CCO)CC2)n1` .
Found: 5.03

Lookup: I would be grateful if you could share the reported cytotoxicity at 10 µM for Cc1nc(C)n(C2CCCN(C(=O)CCOCC(C)C)C2)n1 (stereo not given) .
Found: -0.734

Lookup: I would be grateful if you could share the reported cytotoxicity at 10 µM for `COc1cccc(CNC(=O)NC2(c3nc(C)no3)CCCCC2)c1` .
Found: 4.04

Lookup: I would be grateful if you could share the reported cytotoxicity at 10 µM for CCCc1noc(CCC(=O)N2CCCC2c2cccs2)n1 (stereo not given) .
Found: -14.4

Lookup: I would be grateful if you could share the reported cytotoxicity at 10 µM for O=C(CCn1cccn1)NCC(c1cccs1)N1CCCC1 (stereo not given) .
Found: 7.02

Lookup: I would be grateful if you could share the reported cytotoxicity at 10 µM for `Cn1nnc(NCc2ccc(-c3ccc(Cl)cc3)o2)n1` .
Found: -7.15

Lookup: I would be grateful if you could share the reported cytotoxicity at 10 µM for `CN(CCOc1ccc(F)cc1)S(=O)(=O)N1CCOCC1` .
Found: 7.71

Lookup: I would be grateful if you could share the reported cytotoxicity at 10 µM for `Cc1noc(NC(=O)c2ccc(Br)s2)n1` .
Found: -1.35

Lookup: I would be grateful if you could share the reported cytotoxicity at 10 µM for `Cc1cc(C)n(CCNc2ncnc3c2NC(=O)CN3)n1` .
Found: 6.61

Lookup: I would be grateful if you could share the reported cytotoxicity at 10 µM for c1cc(-c2cc(C3CCN(Cc4cncnc4)C3)ccn2)ccn1 (stereo not given) .
Found: -0.969

Lookup: I would be grateful if you could share the reported cytotoxicity at 10 µM for c1cc(CCNc2ccc(CC3CCNC3)cn2)ccn1 (stereo not given) .
Found: 3.09

###

In this section we review reported cytotoxicity at 10 µM values for a set of compounds.
experiment: Toxicity liver stage against HepG2, at 10uM; assay type: cell-based; set-up: test concentration 10 uM, cell line HepG2-A16-CD81EGFP; details: human, HepG2-A16-CD81EGFP cells; read-out: INHIBITION
Answer format: numeric, % implied, no suffix.

> print(dat)
                                   compound  numeric.value
1  c1cncc(-c2cccc(-c3ccn(CCN4CCCCC4)n3)c2)c1           2.54
2  Cc1nc(-c2ccnn2C)cc(C2CCCN(S(C)(=O)=O)C2)n1 (centres undefined)          -0.66
3  CCCC(C)CN1CCC(n2cc(C3CCCC3)nn2)CC1 (centres undefined)           14.2

Lookup: I would be grateful if you could share the reported cytotoxicity at 10 µM for `N#Cc1cccnc1N1CCCN(C(=O)CCn2cncn2)CC1` .
Found: 0.111

Lookup: I would be grateful if you could share the reported cytotoxicity at 10 µM for Cc1ccc(CC(=O)N2Cc3nccn3CC(Cn3cccn3)C2)cc1 (centres undefined) .
Found: -10.5

Lookup: I would be grateful if you could share the reported cytotoxicity at 10 µM for `CC(C)C(=O)N1CCN(CCOc2cccc(C#N)c2)CC1` .
Found: 10.8

Lookup: I would be grateful if you could share the reported cytotoxicity at 10 µM for COc1c(C2SCC(=O)Nc3[nH]ncc32)cc2c(c1OC)OCO2 (centres undefined) .
Found: 0.219

Lookup: I would be grateful if you could share the reported cytotoxicity at 10 µM for `Cc1ccc(C(=O)NCCNC(=O)c2cncnc2C)cc1F` .
Found: 3.91

Lookup: I would be grateful if you could share the reported cytotoxicity at 10 µM for `O=S(=O)(NCC1(O)CCOCC1)c1c(F)cccc1F` .
Found: -4.97

###

experiment: Toxicity liver stage against HepG2, at 10uM; type: cell-based; parameters: test concentration 10 uM, cell line HepG2-A16-CD81EGFP; conditions: human, HepG2-A16-CD81EGFP cells; read-out: INHIBITION
Endpoint: cytotoxicity at 10 µM (%)
Answer format: numeric, % implied, no suffix.

Here are 3 molecules together with their reported answers.
> print(dat)
                                   molecule               endpoint  numeric.value
1  CCN(C)CC(=O)N1CCN(Cc2ccccc2)[C@@H]2CS(=O)(=O)C[C@@H]21  cytotoxicity at 10 µM          -5.18
2  Cc1cc(C)n(CC2CCCN2CC(=O)Nc2nnc(C)s2)n1 (configuration not stated)  cytotoxicity at 10 µM           5.29
3  O=C(CCCN1CCCCC1)N1CCN(C(=O)c2nc[nH]n2)CC1  cytotoxicity at 10 µM           7.81

Lookup: I would be grateful if you could share the reported cytotoxicity at 10 µM for CC(C)(O)CCc1cccc(C(=O)NCCC2CCOC2)c1 (configuration not stated) .
Found: -1.94

Lookup: I would be grateful if you could share the reported cytotoxicity at 10 µM for Cc1ccc(-c2noc(C3CCN3C(=O)c3cc[nH]n3)n2)s1 (configuration not stated) .
Found: 8.47

Lookup: I would be grateful if you could share the reported cytotoxicity at 10 µM for CC(=O)N1N=C(c2ccccc2)OC1C(=O)NCCc1ccc(Cl)cc1 (configuration not stated) .
Found: 3.68

Lookup: I would be grateful if you could share the reported cytotoxicity at 10 µM for `CC(=O)c1cccc(OCc2cc(C(=O)N3CCCCO3)n[nH]2)c1` .
Found: 2.19

Lookup: I would be grateful if you could share the reported cytotoxicity at 10 µM for `O=C(NCCO)C1(Cc2cc(-c3ccc(F)cc3F)no2)CCOCC1` .
Found: 0.333

###

test: Toxicity liver stage against HepG2, at 10uM; type: cell-based; set-up: test concentration 10 uM, cell line HepG2-A16-CD81EGFP; details: human, HepG2-A16-CD81EGFP cells; read-out: INHIBITION
In this section we review reported cytotoxicity at 10 µM values for a set of compounds.
Answer format: numeric, % implied, no suffix.

Here are 5 compounds together with their reported answers.
> print(dat)
                                   compound  unit.descriptor  numeric.value
1  COc1ccc(C(=O)NCCCOC(C)c2ccccc2)c(OC)c1 (stereo unspecified)                %          -17.3
2  CCOCCN1CCN(Cc2nc(C3CC3)no2)CC1CC (stereo unspecified)                %          -5.75
3  Cn1nc2c(cc1=O)CN(CC(=O)NC1CCCCNC1=O)CC2 (stereo unspecified)                %            1.9
4       Cc1nc(C)n(CCNS(=O)(=O)NCc2ccccc2)n1                %          -11.4
5  CCc1n[nH]c(C2CN(C(=O)c3cnn(CC)c3)CCO2)n1 (stereo unspecified)                %          -2.87

Lookup: I would be grateful if you could share the reported cytotoxicity at 10 µM for `COc1ccccc1NCC(=O)NCc1ccc(-c2ccn[nH]2)cc1` .
Found: -1.99

Lookup: I would be grateful if you could share the reported cytotoxicity at 10 µM for `COCCCn1c(CN2CCCCO2)cnc1S(=O)(=O)C1CCCC1` .
Found: 4.24

Lookup: I would be grateful if you could share the reported cytotoxicity at 10 µM for `Cc1ccc([C@]2(O)CC[C@H]3CN(Cc4cccc(Cl)c4Cl)C[C@H]32)nc1` .
Found: 9.42

Lookup: I would be grateful if you could share the reported cytotoxicity at 10 µM for `Cc1ccc2c(c1)c(CNC(=O)C1CCN(C(=O)C3CC3)CC1)nn2C` .
Found: -0.687

Lookup: I would be grateful if you could share the reported cytotoxicity at 10 µM for `Cc1ccc2c(n1)N(CC1CC1)CCN(S(=O)(=O)C1CC1)C2` .
Found: 12.4

Lookup: I would be grateful if you could share the reported cytotoxicity at 10 µM for `CN1CC2(CCN(C(=O)c3ccc4nonc4c3)CC2)CC1=O` .
Found: 0.873

Origin of measurements: ChEMBL document CHEMBL4513216
